assay: Antioxidant activity assessed as DPPH radical scavenging activity after 30 mins by spectrophotometric analysis; format: physicochemical
recordedEndpoint: IC50
Express your answer as a number followed by its unit.

Clc1ccc(OCc2cn(Cc3cccc(Cl)c3)nn2)cc1 yielded IC50 of 23.3 µg/mL

Clc1ccc(OCc2cn(Cc3ccc(Br)cc3)nn2)cc1 yielded IC50 of 11 µg/mL

O=C1O[C@H]([C@@H](O)CO)C(O)=C1O [ASCORBIC ACID] yielded IC50 of 12.7 µg/mL

Clc1cc(Cl)c(OCc2cn(Cc3ccc(Br)cc3)nn2)c(Cl)c1 yielded IC50 of 14 µg/mL

O=[N+]([O-])c1cccc(OCc2cn(Cc3cccc(Cl)c3)nn2)c1 yielded IC50 of 31.2 µg/mL

Cc1cc(OCc2cn(Cc3ccc([N+](=O)[O-])cc3)nn2)ccc1Cl yielded IC50 of 13.4 µg/mL

Cc1cc(OCc2cn(Cc3ccc(Cl)cc3)nn2)ccc1Cl yielded IC50 of 11.4 µg/mL

O=[N+]([O-])c1ccc(Cn2cc(COc3c(Cl)cc(Cl)cc3Cl)nn2)cc1 yielded IC50 of 28.9 µg/mL

O=[N+]([O-])c1cccc(Cn2cc(COc3c(Cl)cc(Cl)cc3Cl)nn2)c1 yielded IC50 of 29.2 µg/mL

Brc1ccc(Cn2cc(COc3ccccc3)nn2)cc1 yielded IC50 of 18.3 µg/mL

O=[N+]([O-])c1cccc(Cn2cc(COc3cccc([N+](=O)[O-])c3)nn2)c1 yielded IC50 of 19.1 µg/mL

O=[N+]([O-])c1ccc(Cn2cc(COc3ccc(Cl)cc3)nn2)cc1 yielded IC50 of 24.2 µg/mL

Cc1ccc(OCc2cn(Cc3ccc(Cl)cc3)nn2)cc1 yielded IC50 of 17.3 µg/mL

Cc1ccc(OCc2cn(Cc3ccc(Br)cc3)nn2)cc1 yielded IC50 of 16.3 µg/mL

Cc1ccc(OCc2cn(Cc3cccc(Cl)c3)nn2)cc1 yielded IC50 of 16.3 µg/mL

O=[N+]([O-])c1cccc(Cn2cc(COc3ccc(Cl)cc3)nn2)c1 yielded IC50 of 21.3 µg/mL

Clc1ccc(Cn2cc(COc3c(Cl)cc(Cl)cc3Cl)nn2)cc1 yielded IC50 of 27.2 µg/mL

O=[N+]([O-])c1ccc(Cn2cc(COc3cccc([N+](=O)[O-])c3)nn2)cc1 yielded IC50 of 17.1 µg/mL

O=[N+]([O-])c1ccc(OCc2cn(Cc3ccc(Br)cc3)nn2)c(I)c1 yielded IC50 of 18.5 µg/mL

O=[N+]([O-])c1cccc(OCc2cn(Cc3ccc(Br)cc3)nn2)c1 yielded IC50 of 29.4 µg/mL

Clc1ccc(Cn2cc(COc3ccc(Cl)cc3)nn2)cc1 yielded IC50 of 26.1 µg/mL

###

experiment: Cytotoxicity against human THP1 cells assessed as growth inhibition after 48 hrs by MTT assay; type: cell-based, THP-1; conditions: thp-1, 48 h
Exercise: state measured GI90 for each of the compounds provided.

Cc1ccc(OCc2cn(Cc3cccc(Cl)c3)nn2)cc1 yielded GI90 of 93.1 µg/mL

Clc1ccc(Cn2cc(COc3c(Cl)cc(Cl)cc3Cl)nn2)cc1 yielded GI90 of > 100 µg/mL

Brc1ccc(Cn2cc(COc3ccccc3)nn2)cc1 yielded GI90 of 68.3 µg/mL

Cc1cc(OCc2cn(Cc3ccc(Cl)cc3)nn2)ccc1Cl yielded GI90 of 88.1 µg/mL

Clc1cc(Cl)c(OCc2cn(Cc3ccc(Br)cc3)nn2)c(Cl)c1 yielded GI90 of > 100 µg/mL

Clc1ccc(Cn2cc(COc3ccc(Cl)cc3)nn2)cc1 yielded GI90 of 89.7 µg/mL

Clc1ccc(Cn2cc(COc3ccccc3)nn2)cc1 yielded GI90 of > 100 µg/mL

Clc1ccc(OCc2cn(Cc3cccc(Cl)c3)nn2)cc1 yielded GI90 of > 100 µg/mL

###

assay: Antioxidant activity assessed as DPPH radical scavenging activity after 30 mins by spectrophotometric analysis; assay type: physicochemical
Exercise: state measured IC50 for each of the compounds provided.
Supply the numeric figure in µg/mL, leaving out any unit text.

Cc1cc(C(C)(C)C)c(O)c(C(C)(C)C)c1 [BUTYLATED HYDROXYTOLUENE] yielded IC50 of 16.5

O=[N+]([O-])c1cccc(Cn2cc(COc3ccccc3)nn2)c1 yielded IC50 of 25.3

O=[N+]([O-])c1cccc(OCc2cn(Cc3ccc(Cl)cc3)nn2)c1 yielded IC50 of 37.3

Cc1cc(OCc2cn(Cc3ccc(Br)cc3)nn2)ccc1Cl yielded IC50 of 16.5

O=[N+]([O-])c1ccc(Cn2cc(COc3ccccc3)nn2)cc1 yielded IC50 of 10.1

Clc1ccc(Cn2cc(COc3ccccc3)nn2)cc1 yielded IC50 of 26.1

Cc1cc(OCc2cn(Cc3cccc([N+](=O)[O-])c3)nn2)ccc1Cl yielded IC50 of 15.6

Clc1cccc(Cn2cc(COc3c(Cl)cc(Cl)cc3Cl)nn2)c1 yielded IC50 of 16.4

Clc1cccc(Cn2cc(COc3ccccc3)nn2)c1 yielded IC50 of 27.3

Cc1ccc(OCc2cn(Cc3cccc([N+](=O)[O-])c3)nn2)cc1 yielded IC50 of 12.1

Cc1ccc(OCc2cn(Cc3ccc([N+](=O)[O-])cc3)nn2)cc1 yielded IC50 of 10.9

###

Exercise: state measured GI90 for each of the compounds provided.
experiment: Cytotoxicity against human PANC1 cells assessed as growth inhibition after 48 hrs by MTT assay; type: cell-based, PANC-1; settings: panc-1, 48 h

Clc1ccc(OCc2cn(Cc3cccc(Cl)c3)nn2)cc1 yielded GI90 of > 100 µg/mL

Clc1ccc(Cn2cc(COc3ccc(Cl)cc3)nn2)cc1 yielded GI90 of > 100 µg/mL

Clc1cccc(Cn2cc(COc3ccccc3)nn2)c1 yielded GI90 of > 100 µg/mL

Clc1ccc(Cn2cc(COc3c(Cl)cc(Cl)cc3Cl)nn2)cc1 yielded GI90 of > 100 µg/mL

Cc1ccc(OCc2cn(Cc3cccc(Cl)c3)nn2)cc1 yielded GI90 of > 100 µg/mL

Clc1ccc(Cn2cc(COc3ccccc3)nn2)cc1 yielded GI90 of > 100 µg/mL

Cc1cc(OCc2cn(Cc3ccc(Cl)cc3)nn2)ccc1Cl yielded GI90 of > 100 µg/mL

CC(=O)O[C@H]1C(=O)[C@@]2(C)[C@H]([C@H](OC(=O)c3ccccc3)[C@]3(O)C[C@H](OC(=O)[C@H](O)[C@@H](NC(=O)c4ccccc4)c4ccccc4)C(C)=C1C3(C)C)[C@]1(OC(C)=O)CO[C@@H]1C[C@@H]2O [PACLITAXEL] yielded GI90 of 0.07 µg/mL

Clc1ccc(OCc2cn(Cc3ccc(Br)cc3)nn2)cc1 yielded GI90 of > 100 µg/mL

Clc1cc(Cl)c(OCc2cn(Cc3ccc(Br)cc3)nn2)c(Cl)c1 yielded GI90 of > 100 µg/mL

###

Exercise: state measured selectivity ratio for each of the molecules provided.
assay: Selectivity index, ratio of GI50 for human A549 cells to MIC for dormant phase Mycobacterium tuberculosis H37Ra ATCC 25177; format: toxicity, cell-based; details: read-out: Selectivity Index

Clc1cccc(Cn2cc(COc3ccccc3)nn2)c1 yielded selectivity ratio of > 3.6

Cc1cc(OCc2cn(Cc3ccc([N+](=O)[O-])cc3)nn2)ccc1Cl yielded selectivity ratio of > 3.6

Clc1ccc(Cn2cc(COc3ccccc3)nn2)cc1 yielded selectivity ratio of > 3.3

O=[N+]([O-])c1ccc(Cn2cc(COc3ccc(Cl)cc3)nn2)cc1 yielded selectivity ratio of > 3.6

O=[N+]([O-])c1ccc(Cn2cc(COc3ccccc3)nn2)cc1 yielded selectivity ratio of > 3.6

Cc1ccc(OCc2cn(Cc3cccc(Cl)c3)nn2)cc1 yielded selectivity ratio of > 3.5

Cc1ccc(OCc2cn(Cc3ccc(Cl)cc3)nn2)cc1 yielded selectivity ratio of > 4.1

Clc1ccc(OCc2cn(Cc3cccc(Cl)c3)nn2)cc1 yielded selectivity ratio of > 3.9

###

experiment: Cytotoxicity against human THP1 cells assessed as growth inhibition after 48 hrs by MTT assay; assay type: cell-based, THP-1; details: thp-1, 48 h
Exercise: state measured log10 of GI90 for each of the molecules provided.
All values: base-10 log of GI90 in µg/mL.

CC(=O)O[C@H]1C(=O)[C@@]2(C)[C@H]([C@H](OC(=O)c3ccccc3)[C@]3(O)C[C@H](OC(=O)[C@H](O)[C@@H](NC(=O)c4ccccc4)c4ccccc4)C(C)=C1C3(C)C)[C@]1(OC(C)=O)CO[C@@H]1C[C@@H]2O yielded log10 of GI90 of 0.76

O=[N+]([O-])c1cccc(Cn2cc(COc3ccc(Cl)cc3)nn2)c1 yielded log10 of GI90 of 1.99

Clc1cccc(Cn2cc(COc3ccccc3)nn2)c1 yielded log10 of GI90 of 1.73

O=[N+]([O-])c1ccc(Cn2cc(COc3ccc(Cl)cc3)nn2)cc1 yielded log10 of GI90 of 1.95

Cc1cc(OCc2cn(Cc3ccc([N+](=O)[O-])cc3)nn2)ccc1Cl yielded log10 of GI90 of 1.93

Cc1ccc(OCc2cn(Cc3ccc([N+](=O)[O-])cc3)nn2)cc1 yielded log10 of GI90 of 1.82
